Measured pIC50 of individual entries
- System: SMMC-7721
- test.protocol: Cytotoxicity against human SMMC7721 cells assessed as growth inhibition after 48 hrs by MTS assay
- Type: functional, cell-based
- condition.set: SMMC-7721, 48 h
pIC50: −log10 of the molar value.

- compound: "CC(=O)O[C@H]1C(=O)[C@@]2(C)[C@H]([C@H](OC(=O)c3ccccc3)[C@]3(O)C[C@H](OC(=O)[C@H](O)[C@@H](NC(=O)c4ccccc4)c4ccccc4)C(C)=C1C3(C)C)[C@]1(OC(C)=O)CO[C@@H]1C[C@@H]2O [PACLITAXEL]"
  cmp: ">"
  pIC50: 8.10
- compound: "C=C1C(=O)[C@@]23[C@H](O)C[C@@H]4[C@@](C)(CO)CCC[C@@]4(C)[C@@H]2C[C@H](O)[C@@H]1[C@H]3OC(C)=O"
  cmp: "<"
  pIC50: 5.00
- compound: "C=C1C(=O)[C@@]23[C@H](O)C[C@@H]4C(C)(C)CCC[C@@]4(C)[C@@H]2[C@@H](O)[C@H](O)[C@@H]1[C@H]3O [RABDOLOXIN B]"
  cmp: "="
  pIC50: 5.47
- compound: "C=C1C(=O)[C@]23[C@H](O)[C@H]1[C@@H](O)C[C@H]2[C@]1(C)CCC[C@](C)(COC(C)=O)[C@H]1C[C@H]3OC(C)=O"
  cmp: "="
  pIC50: 5.46
- compound: "C=C1[C@@H]2C[C@H](O)[C@H]3[C@]4(C)[C@@H](OC(C)=O)C[C@H](O)C(C)(C)[C@H]4[C@@H](OC(C)=O)[C@H](OC(C)=O)[C@]3(C2)[C@@H]1O [NERVONIN G]"
  cmp: "<"
  pIC50: 5.00
- compound: "C=C1C(=O)[C@@]23CC[C@@H]4[C@@](C)(CO)CCC[C@@]4(C)[C@@H]2C[C@H](O)[C@@H]1[C@H]3O"
  cmp: "="
  pIC50: 5.40
- compound: "C=C1C(=O)[C@@]23[C@H](O)C[C@@H]4[C@@](C)(CO)CCC[C@@]4(CO)[C@@H]2C[C@H](O)[C@@H]1[C@H]3O"
  cmp: "<"
  pIC50: 5.00
- compound: "C=C1C(=O)[C@]23C[C@H]1C[C@H](OC(C)=O)[C@H]2[C@]1(C)[C@@H](OC(C)=O)C[C@H](O)C(C)(C)[C@H]1C(=O)[C@@H]3OC(C)=O [ADENANTHIN]"
  cmp: "="
  pIC50: 5.40
- compound: "C=C1[C@H]2C[C@@]3(CC[C@@H]4[C@@](C)(CO)CCC[C@@]4(C)[C@@H]3C[C@@H]2O)[C@@H]1O"
  cmp: "<"
  pIC50: 5.00
- compound: "C=C1C(=O)[C@@]23[C@H](O)C[C@@H]4C(C)(C)CCC[C@@]4(C)[C@@H]2[C@@H](O)[C@H](O)[C@@H]1[C@H]3OC(C)=O [RABDOKUNMIN A]"
  cmp: "="
  pIC50: 5.24
- compound: "C=C1C(=O)[C@]23[C@H](O)[C@H]1[C@@H](O)C[C@H]2[C@]1(C)CCC[C@](C)(CO)[C@H]1C[C@H]3OC(C)=O"
  cmp: "<"
  pIC50: 5.00

Reference source: ChEMBL document CHEMBL3233000
